Biological target: T1, cynomolgus monkey 5T4 antigen (cynomolgus monkey, UniProt Q4R8Y9 35-420)
T1 construct: whole, on cells; also called cyno 5T4
T1 sequence (looked up): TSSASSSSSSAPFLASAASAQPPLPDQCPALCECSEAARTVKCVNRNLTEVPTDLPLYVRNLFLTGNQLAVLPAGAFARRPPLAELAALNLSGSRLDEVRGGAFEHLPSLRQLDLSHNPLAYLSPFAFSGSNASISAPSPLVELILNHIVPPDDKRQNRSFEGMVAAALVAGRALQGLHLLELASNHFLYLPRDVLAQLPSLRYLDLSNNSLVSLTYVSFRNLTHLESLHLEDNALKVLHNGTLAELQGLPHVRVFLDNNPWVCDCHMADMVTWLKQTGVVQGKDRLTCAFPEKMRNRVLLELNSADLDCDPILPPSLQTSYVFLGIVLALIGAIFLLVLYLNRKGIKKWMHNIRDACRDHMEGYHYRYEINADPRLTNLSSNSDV
Test: flow cytometry, CHOZN cells expressing cyno 5T4
readout.kind: EC50 (mg/L)
Response body: numeric value in mg/L, unit text excluded.

# return recorded EC50 for input chimeric anti-5T4 monoclonal antibody 899 (antibody, human IgG1, V domains shown) VH: QSVEESGGRLVTPGTPLTLTCTVSGFSLSSYTMSWVRQAPGKGLEYIGIISSSDGTWYANWVKGRFTISKTSTTVDLKMTSLTTEDTATYFCARDGTGNKYYTWDRLDLWGQGTLVTVSS VL: NIVMTQTPSPVSGAVGGTVTINCQASQSIYNELSWYQQKPGQPPKLLIYYASTLASGVSSRFKGSGSGTQFTLTISGVESVDAATYYCQQGYSSSNVDNVFGGGTEVVVK
0.18
